# assay text: NCI Yeast Anticancer Drug Screen. Data for the mlh1 rad18 strain (AID 175)
# details: S. cerevisiae mlh1 rad18 strain growth inhibition; at 50.0 µM
Compounds without any hit were thinned out: in the full panel of roughly 79,000, 15% have a hit. The source made the active and inactive calls. Rule as the data show it: active = growth inhibition above about 70%; inactive = the rest.
Outcome codes: 1 for active, -1 for inactive

{"compound": "O=C(O)CS(=O)(=O)O", "assigned label": -1}
{"compound": "CC(=O)Oc1ccc(C2CC(=O)N(CCN(C)C)C2=O)cc1 (stereo unspecified)", "assigned label": -1}
{"compound": "CCCC(=O)n1[nH]c(=O)n(-c2ccc(Cl)cc2)c1=O", "assigned label": -1}
{"compound": "N#CC1(C2CC(=O)N(c3ccccc3)C2=O)CCCCC1=O (stereo unspecified)", "assigned label": -1}
{"compound": "O=C1CSC(c2cccs2)N1CCN1C(=O)CSC1c1cccs1 (stereo unspecified)", "assigned label": -1}
{"compound": "COC(=O)c1c(O)c2c(c3c1OC(C)(C)CC3)OC(C)(C)CC2", "assigned label": -1}
{"compound": "CCOC(=O)c1cnc2ccccn2c1=O", "assigned label": -1}
{"compound": "C=C(C)CS(=O)(=O)O", "assigned label": -1}
{"compound": "Cc1ccc(C2OC2C(=O)c2ccccc2)cc1 (stereo unspecified)", "assigned label": -1}
{"compound": "CC(C)(C)C1CCC2c3c([nH]c4ncccc34)C3C(=O)N(c4ccccc4)C(=O)C3C2C1 (stereo unspecified)", "assigned label": -1}
{"compound": "CCN(CC)c1ccc(/C=N\\N(C)C)cc1", "assigned label": -1}
{"compound": "CC12CC3CC(C1)CC(NCCO)(C3)C2", "assigned label": -1}
{"compound": "CC(=O)n1cc(CC(C)O)c(=O)[nH]c1=O (stereo unspecified)", "assigned label": -1}
{"compound": "COC(=O)c1c2c(cc3c1CC1(C3)Cc3cc4c(c(C(C)=O)c3C1)CCC4)C=CC2 (stereo unspecified)", "assigned label": -1}
{"compound": "CCc1ccccc1NC(=O)CC1NC(=O)CS1 (stereo unspecified)", "assigned label": -1}
{"compound": "O=c1cccccc1Cl", "assigned label": -1}
{"compound": "C/C=C(\\C)C(=O)OC1C2C(C)=CC(=O)C(O)C2(C)C2C3(O)OCC24C1OC(=O)C(OC(C)=O)C4C(C)C3O (stereo unspecified)", "assigned label": 1}
{"compound": "CC(=O)NC1(C)CC[C@H]2CC1C(C)=NC2(C)C (stereo partly specified)", "assigned label": -1}
{"compound": "O=P1(O)c2ccccc2CCc2ccccc21", "assigned label": -1}
{"compound": "C/C(CC(=O)Nc1ccc(C)cc1C)=N/N=C(N)N", "assigned label": -1}
{"compound": "COc1ccc(OC)c(NC(=O)CCCC(=O)C(C#N)c2ccccc2C)c1 (stereo unspecified)", "assigned label": -1}

---

growth inhibition listing for selected compounds.
# assay text: NCI Yeast Anticancer Drug Screen. Data for the rad50 strain (AID 155);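 also: 0% = growth of vehicle-only cultures of the same strain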
# details: S. cerevisiae rad50 strain growth inhibition; at 50.0 µM; stronger effect = higher value
This is part of a sample that, as a whole, favours compounds with a hit. Of some 79,000 tested, about 15% had one in any assay.

{"compound": "C=C(CC(O)c1ccccc1)C(=O)Nc1ccccc1OC (stereo not given)", "unit tag": "%", "growth inhibition": 25.9}
{"compound": "NC(CSSCC(N)=NC1CCCCC1)=NC1CCCCC1", "unit tag": "%", "growth inhibition": 6.5}
{"compound": "CCc1nc2c(c(=O)n(C)c(=O)n2C)n1C", "unit tag": "%", "growth inhibition": -2.65}
{"compound": "N#CC(c1ccccc1)N(C(N)=O)c1ccccc1 (stereo not given)", "unit tag": "%", "growth inhibition": -3.15}
{"compound": "CC(C)(c1ccc(C(=O)O)cc1)c1ccc(C(=O)O)cc1", "unit tag": "%", "growth inhibition": -1.65}
{"compound": "CSc1nc(Br)nc2c1ncn2C1CC(Oc2ccc(C)cc2)C(COc2ccc(C)cc2)O1 (stereo not given)", "unit tag": "%", "growth inhibition": 13.4}
{"compound": "CC(=O)CC(=O)NCCCN1CCCCC1", "unit tag": "%", "growth inhibition": -28.7}
{"compound": "CCCCCCNC(=O)C1=C(C)NC(C)=C(C(=O)NCCCCCC)C1", "unit tag": "%", "growth inhibition": 4.9}
{"compound": "Cc1cc(Cl)cc(CN(Cc2ccccc2)Cc2cc(Cl)cc(C)c2O)c1O", "unit tag": "%", "growth inhibition": 1.3}
{"compound": "O=C1CN(c2cccc(C(F)(F)F)c2)C(=O)CN1/N=C/c1ccc(O)c(O)c1", "unit tag": "%", "growth inhibition": 3.4}
{"compound": "O=c1c(=[n+]2ccc(=C([O-])c3ccccc3)cc2)/c(=N/S(=O)(=O)c2ccccc2)c(=O)c2ccccc12", "unit tag": "%", "growth inhibition": 19.2}
{"compound": "CCCCCCCCn1c(C)nc2c(cnn2C)c1=O", "unit tag": "%", "growth inhibition": -9.6}
{"compound": "Cc1ccc(S(=O)(=O)Oc2cccc(Br)c2)cc1", "unit tag": "%", "growth inhibition": 8.25}
{"compound": "CCOC(=O)c1c(C)c(C)n2c1NC(=O)C2", "unit tag": "%", "growth inhibition": -4.5}
{"compound": "O=P(O)(CP(=O)(c1ccccc1)c1ccccc1)c1ccccc1", "unit tag": "%", "growth inhibition": 15.3}
